Data origin: patent US20260174814A1

- experiment: Protective effect on dexamethasone-induced myotube cell damage (MTT assay)
- Type: cell-based
- conditions: mouse, C2C12 cells differentiated into myotubes, 5 μM dexamethasone alone, read-out: decrease of cell viability compared to the control group not treated with dexamethasone
value_type: cytotoxicity at 24 h, 5 μM

Data request, read-out cytotoxicity at 24 h, 5 μM, for "C[C@@H]1C[C@H]2[C@@H]3CCC4=CC(=O)C=C[C@]4(C)[C@@]3(F)[C@@H](O)C[C@]2(C)[C@@]1(O)C(=O)CO"
~10%
